Values compiled from ChEMBL document CHEMBL1909046.

Experiment: DRUGMATRIX: Sigma2 radioligand binding (ligand: [3H] Ifenprodil)
Format: cell membranes, Rattus norvegicus, Wistar, Brain, Membrane
Details: Not Active = under 50% inhibition at 10 µM
Value type: IC50

Below are worked cases with known answers.
Molecule | Value type | Observed value
O=C(O)Cc1ccccc1Nc1c(Cl)cccc1Cl | IC50 | Not Active
O=C1CCC(N2C(=O)c3ccccc3C2=O)C(=O)N1 (stereo not drawn) [THALIDOMIDE] | IC50 | Not Active
CC(=O)Nc1cccc(O)c1 | IC50 | Not Active
C[C@]1(Cn2ccnn2)[C@H](C(=O)O)N2C(=O)C[C@H]2S1(=O)=O | IC50 | Not Active
COc1cccc2c1C(=O)c1c(O)c3c(c(O)c1C2=O)C[C@@](O)(C(=O)CO)C[C@@H]3O[C@H]1C[C@H](N)[C@@H](O)[C@H](C)O1 [EPIRUBICIN] | IC50 | Not Active

Challenge: Given CC1(C)O[C@@H]2C[C@H]3[C@@H]4C[C@H](F)C5=CC(=O)C=C[C@]5(C)[C@@]4(F)[C@@H](O)C[C@]3(C)[C@]2(C(=O)CO)O1 [FLUOCINOLONE ACETONIDE] , respond with its IC50.
Response given: Not Active

Challenge: Given O=c1ccc2ccccc2o1 , respond with its IC50.
Response given: Not Active

Challenge: Given CC(C)[C@H]1CC[C@H](C(=O)N[C@H](Cc2ccccc2)C(=O)O)CC1 [NATEGLINIDE] , respond with its IC50.
Response given: Not Active
